# study system: Glucocorticoid receptor (Homo sapiens, UniProt P04150); also: assay procedure not described here
# Sequence (P04150 whole entry): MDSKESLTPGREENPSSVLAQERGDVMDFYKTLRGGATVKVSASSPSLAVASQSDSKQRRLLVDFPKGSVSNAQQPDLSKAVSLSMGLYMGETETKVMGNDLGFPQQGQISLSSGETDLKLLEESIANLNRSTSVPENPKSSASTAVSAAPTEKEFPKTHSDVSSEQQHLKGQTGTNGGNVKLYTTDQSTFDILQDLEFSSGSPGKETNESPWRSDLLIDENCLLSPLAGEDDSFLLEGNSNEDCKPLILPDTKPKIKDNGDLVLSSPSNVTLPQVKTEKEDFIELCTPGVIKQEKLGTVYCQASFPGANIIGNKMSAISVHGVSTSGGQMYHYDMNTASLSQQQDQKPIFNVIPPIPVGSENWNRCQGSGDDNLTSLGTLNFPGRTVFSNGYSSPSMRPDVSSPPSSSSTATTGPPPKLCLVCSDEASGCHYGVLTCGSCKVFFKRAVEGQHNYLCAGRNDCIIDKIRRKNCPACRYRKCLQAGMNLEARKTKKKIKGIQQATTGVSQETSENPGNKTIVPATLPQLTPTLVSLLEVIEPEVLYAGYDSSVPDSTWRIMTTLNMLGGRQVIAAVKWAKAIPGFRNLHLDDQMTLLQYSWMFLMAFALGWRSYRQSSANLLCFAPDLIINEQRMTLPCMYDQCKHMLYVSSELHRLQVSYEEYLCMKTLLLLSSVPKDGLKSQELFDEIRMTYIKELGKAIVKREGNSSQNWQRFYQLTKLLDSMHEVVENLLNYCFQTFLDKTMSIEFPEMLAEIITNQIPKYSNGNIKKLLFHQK
# Format: functional
quantity kind: AC50

In [3]: df
Out[3]:
                           structure_smiles                              study_system  recorded_result
0  [H]/N=C(/N)c1ccc(NCc2nc3cc(C(=O)N(CCC(=O)O)c4ccccn4)ccc3n2C)cc1  Glucocorticoid receptor (Homo sapiens, UniProt P04150)          > 30 µM
1  COc1ccc2c(c1)C(=O)N(CCc1ccc(S(=O)(=O)NC(=O)NC3CCCCC3)cc1)C(=O)C2(C)C  Glucocorticoid receptor (Homo sapiens, UniProt P04150)           8.9 µM
2  CC[C@H](C)C(=O)O[C@H]1C[C@H](O)C=C2C=C[C@H](C)[C@H](CC[C@@H](O)C[C@@H](O)CC(=O)O)[C@H]21  Glucocorticoid receptor (Homo sapiens, UniProt P04150)          > 30 µM
3  CO/N=C(\C(=O)N[C@@H]1C(=O)N2C(C(=O)[O-])=C(C[N+]3(C)CCCC3)CS[C@H]12)c1csc(N)n1  Glucocorticoid receptor (Homo sapiens, UniProt P04150)         > 300 µM
4  Cc1ccc(C(=O)c2cc(O)c(O)c([N+](=O)[O-])c2)cc1  Glucocorticoid receptor (Homo sapiens, UniProt P04150)          > 30 µM
5  OCc1cc([C@@H](O)CNCCCCCCOCCOCc2c(Cl)cccc2Cl)ccc1O  Glucocorticoid receptor (Homo sapiens, UniProt P04150)          > 30 µM
6  C#C[C@]1(O)CC[C@H]2[C@@H]3CCc4cc(O)ccc4[C@H]3CC[C@@]21C  Glucocorticoid receptor (Homo sapiens, UniProt P04150)          > 30 µM

====

# study system: Alpha-2A adrenergic receptor (Homo sapiens); also: assay procedure not described here
# Format: functional, cell-based
quantity kind: AC50

>>> df
                                   molecule  quantity_kind  recorded_result
0  CCOC(=O)[C@H](CCc1ccccc1)N[C@H]1CCCN2CCC[C@@H](C(=O)O)N2C1=O [CILAZAPRIL]           AC50          > 30 µM
1  COc1ccccc1OCC(O)COC(N)=O (stereo not given) [METHOCARBAMOL]           AC50          > 10 µM
2  CN1C(=O)COc2c(C(=O)NC3CN4CCC3CC4)cc(Cl)cc21 (stereo not given) [AZASETRON]           AC50          > 10 µM
3      Nc1nc2ccc(OC(F)(F)F)cc2s1 [RILUZOLE]           AC50          > 30 µM
4  CC(=O)NS(=O)(=O)c1ccc(N)cc1 [SULFACETAMIDE]           AC50          > 10 µM
5  CN1CC[C@]23CCCC[C@H]2[C@H]1Cc1ccc(O)cc13 [LEVORPHANOL]           AC50          > 10 µM
6        CC1=CC(=O)c2ccccc2C1=O [MENADIONE]           AC50          > 10 µM
7  CC(C)[N+](C)(CCC(C(N)=O)(c1ccccc1)c1ccccc1)C(C)C [ISOPROPAMIDE]           AC50          > 10 µM
8          Nc1nc(N)c2nc(-c3ccccc3)c(N)nc2n1           AC50          > 30 µM
9  CN1C(=O)N(C)C2C1N(C)C(=O)N2C (stereo not given) [MEBICAR]           AC50          > 30 µM

====

# study system: UniProt:P08908
# Sequence (P08908 whole entry): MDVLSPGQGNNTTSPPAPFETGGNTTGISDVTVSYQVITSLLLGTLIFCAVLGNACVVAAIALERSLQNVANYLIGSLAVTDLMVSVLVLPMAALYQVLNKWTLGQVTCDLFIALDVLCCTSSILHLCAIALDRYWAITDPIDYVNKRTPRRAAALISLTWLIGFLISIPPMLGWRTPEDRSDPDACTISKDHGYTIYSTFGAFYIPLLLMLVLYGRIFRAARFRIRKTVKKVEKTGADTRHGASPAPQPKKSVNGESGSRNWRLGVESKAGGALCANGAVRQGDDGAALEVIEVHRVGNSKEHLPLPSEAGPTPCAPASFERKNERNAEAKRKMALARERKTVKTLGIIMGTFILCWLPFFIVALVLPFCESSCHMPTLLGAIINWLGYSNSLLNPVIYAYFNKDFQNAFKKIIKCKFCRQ
# Format: functional, cell-based
Entries and their measured AC50 follow.
quantity kind: AC50

>>> df
                                   compound  quantity_kind  recorded_result
0  C1=Cc2cccc(OCC3CNCCO3)c2C1 (stereo not given)           AC50          > 30 µM
1  CC(C)[N+](C)(CCC(C(N)=O)(c1ccccc1)c1ccccc1)C(C)C [ISOPROPAMIDE]           AC50          > 10 µM
2  CC(C)C(=O)Nc1ccc([N+](=O)[O-])c(C(F)(F)F)c1 [FLUTAMIDE]           AC50          > 10 µM
3  O=C(C[S+]([O-])C(c1ccccc1)c1ccccc1)NO (stereo not given)           AC50          > 30 µM
4  CO/N=C(\C(=O)N[C@@H]1C(=O)N2C(C(=O)[O-])=C(C[N+]3(C)CCCC3)CS[C@H]12)c1csc(N)n1           AC50         > 300 µM

====

# study system: Voltage-dependent L-type calcium channel subunit alpha-1C (Homo sapiens); also: assay procedure not described here
# Sequence (Q13936 whole entry): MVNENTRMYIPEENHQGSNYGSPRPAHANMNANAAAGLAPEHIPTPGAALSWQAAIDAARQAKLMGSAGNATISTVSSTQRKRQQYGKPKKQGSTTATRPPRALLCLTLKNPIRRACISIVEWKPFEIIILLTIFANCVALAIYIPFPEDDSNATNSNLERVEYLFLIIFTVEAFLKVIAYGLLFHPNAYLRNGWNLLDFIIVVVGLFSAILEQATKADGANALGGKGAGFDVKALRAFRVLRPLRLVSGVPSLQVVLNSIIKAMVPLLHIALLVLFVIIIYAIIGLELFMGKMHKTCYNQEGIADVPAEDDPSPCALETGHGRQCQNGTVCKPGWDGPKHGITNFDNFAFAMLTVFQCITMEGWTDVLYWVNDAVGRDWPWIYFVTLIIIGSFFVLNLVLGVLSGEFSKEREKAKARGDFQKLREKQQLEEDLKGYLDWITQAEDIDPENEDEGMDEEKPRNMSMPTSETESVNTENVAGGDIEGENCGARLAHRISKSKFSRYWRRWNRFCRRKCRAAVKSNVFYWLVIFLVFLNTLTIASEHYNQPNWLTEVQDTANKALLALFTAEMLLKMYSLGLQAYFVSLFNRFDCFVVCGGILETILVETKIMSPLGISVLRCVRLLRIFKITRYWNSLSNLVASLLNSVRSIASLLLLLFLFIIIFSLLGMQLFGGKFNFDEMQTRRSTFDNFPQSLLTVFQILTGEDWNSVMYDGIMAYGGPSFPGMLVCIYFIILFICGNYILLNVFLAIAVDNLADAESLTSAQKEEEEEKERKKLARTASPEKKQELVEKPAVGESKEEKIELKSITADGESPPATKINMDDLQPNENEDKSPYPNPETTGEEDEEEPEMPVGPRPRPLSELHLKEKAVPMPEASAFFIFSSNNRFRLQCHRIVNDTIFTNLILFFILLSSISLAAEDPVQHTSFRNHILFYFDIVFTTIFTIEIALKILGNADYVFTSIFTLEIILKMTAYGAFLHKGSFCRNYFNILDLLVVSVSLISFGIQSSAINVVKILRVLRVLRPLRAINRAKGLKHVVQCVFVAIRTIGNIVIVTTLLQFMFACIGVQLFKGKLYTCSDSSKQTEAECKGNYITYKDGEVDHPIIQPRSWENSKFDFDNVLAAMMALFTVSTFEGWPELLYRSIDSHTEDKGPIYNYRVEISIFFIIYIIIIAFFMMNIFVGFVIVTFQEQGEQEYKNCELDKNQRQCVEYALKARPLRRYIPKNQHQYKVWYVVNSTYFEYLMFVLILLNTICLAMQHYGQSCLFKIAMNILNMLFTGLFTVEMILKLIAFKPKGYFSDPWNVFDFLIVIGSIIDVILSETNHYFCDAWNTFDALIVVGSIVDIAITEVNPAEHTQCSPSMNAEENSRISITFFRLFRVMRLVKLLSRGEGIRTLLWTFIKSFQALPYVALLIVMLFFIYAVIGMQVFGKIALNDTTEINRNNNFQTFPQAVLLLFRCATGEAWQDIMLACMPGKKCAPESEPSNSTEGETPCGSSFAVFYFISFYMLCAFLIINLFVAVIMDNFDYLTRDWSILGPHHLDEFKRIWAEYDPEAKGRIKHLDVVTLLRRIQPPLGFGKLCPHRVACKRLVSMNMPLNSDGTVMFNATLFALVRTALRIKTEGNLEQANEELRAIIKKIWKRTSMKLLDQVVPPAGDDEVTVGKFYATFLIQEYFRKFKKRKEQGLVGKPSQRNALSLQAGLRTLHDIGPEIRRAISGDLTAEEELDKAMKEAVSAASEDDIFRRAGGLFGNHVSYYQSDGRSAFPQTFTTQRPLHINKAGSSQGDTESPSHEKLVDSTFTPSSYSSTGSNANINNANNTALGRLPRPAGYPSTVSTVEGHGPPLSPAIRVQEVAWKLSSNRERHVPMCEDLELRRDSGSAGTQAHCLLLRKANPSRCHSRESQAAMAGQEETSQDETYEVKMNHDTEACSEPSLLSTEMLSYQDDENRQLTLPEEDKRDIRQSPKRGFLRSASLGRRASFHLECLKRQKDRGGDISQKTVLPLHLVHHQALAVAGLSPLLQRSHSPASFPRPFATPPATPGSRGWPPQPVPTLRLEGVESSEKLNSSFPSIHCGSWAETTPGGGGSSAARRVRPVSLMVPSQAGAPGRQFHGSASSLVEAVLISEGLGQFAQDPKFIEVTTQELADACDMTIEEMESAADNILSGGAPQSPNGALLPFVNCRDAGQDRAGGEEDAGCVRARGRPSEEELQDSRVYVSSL
# Format: functional, cell-based
Item-by-item account of AC50

compound	AC50
CCCCOc1cc(C(=O)NCCN(CC)CC)c2ccccc2n1	22 µM
O=C1c2c(O)c(=O)ccn2N([C@@H]2c3ccccc3SCc3c2ccc(F)c3F)[C@@H]2COCCN12	> 50 µM
CCOC(=O)N[C@@H]1CC[C@@H]2[C@@H](C1)C[C@H]1C(=O)O[C@H](C)[C@H]1[C@H]2/C=C/c1ccc(-c2cccc(F)c2)cn1	> 50 µM
CS(=O)(=O)c1ccc([C@@H](O)[C@@H](CO)NC(=O)C(Cl)Cl)cc1	> 50 µM
Nc1nc2ccc(OC(F)(F)F)cc2s1	> 50 µM
CC(Cc1ccccc1)NCCC(c1ccccc1)c1ccccc1 (stereo unspecified)	47 µM
COC(=O)N[C@H](C(=O)N1CCC[C@H]1c1nc(-c2ccc(-c3ccc(-c4c[nH]c([C@@H]5CCCN5C(=O)[C@@H](NC(=O)OC)C(C)C)n4)cc3)cc2)c[nH]1)C(C)C	> 30 µM
O=C1NCCN1CCN1CCC(c2cn(-c3ccc(F)cc3)c3ccc(Cl)cc23)CC1	> 50 µM
CC(C)OC(=O)[C@H](C)N[P@](=O)(OC[C@H]1O[C@@H](n2ccc(=O)[nH]c2=O)[C@](C)(F)[C@@H]1O)Oc1ccccc1	> 50 µM
CCCS(=O)(=O)Nc1ccc(F)c(C(=O)c2c[nH]c3ncc(-c4ccc(Cl)cc4)cc23)c1F	> 30 µM
Cc1cccc(C)c1OCC(C)N (stereo unspecified)	> 50 µM

====

This listing pairs compounds with measured AC50.
# study system: 3',5'-cyclic-AMP phosphodiesterase 4D (Homo sapiens, UniProt Q08499); also: assay procedure not described here
# Sequence (Q08499 whole entry): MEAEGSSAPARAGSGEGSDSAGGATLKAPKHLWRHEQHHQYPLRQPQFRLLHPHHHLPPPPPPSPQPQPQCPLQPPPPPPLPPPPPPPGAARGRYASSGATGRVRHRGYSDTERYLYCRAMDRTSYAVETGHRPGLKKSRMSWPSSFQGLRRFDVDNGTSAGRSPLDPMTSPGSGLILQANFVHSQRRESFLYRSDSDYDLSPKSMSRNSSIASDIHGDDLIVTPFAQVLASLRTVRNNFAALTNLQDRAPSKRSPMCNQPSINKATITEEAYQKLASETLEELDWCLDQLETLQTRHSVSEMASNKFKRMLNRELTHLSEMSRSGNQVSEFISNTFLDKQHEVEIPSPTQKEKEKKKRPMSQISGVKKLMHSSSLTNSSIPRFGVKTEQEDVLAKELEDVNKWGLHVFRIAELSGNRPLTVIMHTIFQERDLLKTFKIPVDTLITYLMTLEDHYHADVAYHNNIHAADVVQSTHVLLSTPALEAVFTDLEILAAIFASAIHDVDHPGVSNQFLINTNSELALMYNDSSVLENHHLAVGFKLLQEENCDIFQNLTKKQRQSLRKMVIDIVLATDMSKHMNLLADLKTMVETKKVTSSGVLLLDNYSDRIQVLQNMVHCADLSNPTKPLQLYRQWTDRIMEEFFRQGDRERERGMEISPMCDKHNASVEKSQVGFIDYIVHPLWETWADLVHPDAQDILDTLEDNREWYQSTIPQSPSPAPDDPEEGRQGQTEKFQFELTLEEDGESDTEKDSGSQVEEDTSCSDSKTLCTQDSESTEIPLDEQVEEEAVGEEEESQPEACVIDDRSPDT
# Type: functional
quantity kind: AC50

compound	quantity kind	recorded result
Cc1cc2c(OCC(CNC(C)(C)C)OC(=O)c3ccccc3)cccc2[nH]1 (stereo not drawn)	AC50	> 30 µM
CC[C@]1(O)C[C@@H]2CN(CCc3c([nH]c4ccccc34)[C@@](C(=O)OC)(c3cc4c(cc3OC)N(C)[C@H]3[C@@](O)(C(N)=O)[C@H](O)[C@]5(CC)C=CCN6CC[C@]43[C@@H]65)C2)C1	AC50	> 30 µM
CC(C)NCC(O)COc1ccc(COCCOC(C)C)cc1 (stereo not drawn)	AC50	> 30 µM
CCCC(=O)N1CCCN(c2nc(N)c3cc(OC)c(OC)cc3n2)CC1	AC50	> 30 µM
COC(=O)[C@H]1[C@@H](OC(=O)c2ccccc2)C[C@@H]2CC[C@H]1N2C	AC50	> 30 µM
NS(=O)(=O)c1cc(-c2nnn[nH]2)c(NCc2cccs2)cc1Cl [AZOSEMIDE]	AC50	7.8 µM
Cc1c(Cl)cccc1Nc1ccccc1C(=O)O	AC50	> 30 µM
CC(N)Cc1ccccc1 (stereo not drawn)	AC50	> 30 µM

====

# study system: Alpha-2C adrenergic receptor (Homo sapiens); also: assay procedure not described here
# Sequence (P18825 whole entry): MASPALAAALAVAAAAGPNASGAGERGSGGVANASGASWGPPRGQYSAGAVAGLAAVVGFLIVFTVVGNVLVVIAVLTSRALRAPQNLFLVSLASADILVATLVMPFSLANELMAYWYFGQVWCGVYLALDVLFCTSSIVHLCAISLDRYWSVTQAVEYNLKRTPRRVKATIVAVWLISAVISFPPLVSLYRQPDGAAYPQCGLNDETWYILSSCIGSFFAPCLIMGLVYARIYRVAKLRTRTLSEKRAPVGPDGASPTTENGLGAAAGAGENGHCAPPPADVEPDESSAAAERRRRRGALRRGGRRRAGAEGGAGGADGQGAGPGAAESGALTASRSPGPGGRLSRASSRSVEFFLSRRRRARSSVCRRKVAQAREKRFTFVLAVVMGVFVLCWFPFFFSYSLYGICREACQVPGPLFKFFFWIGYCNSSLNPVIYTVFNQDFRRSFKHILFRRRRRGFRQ
# Assay type: functional
quantity kind: AC50

compound	quantity kind	recorded result
O=C(O)CCn1c2c(c3ccccc31)C[C@H](NS(=O)(=O)c1ccc(F)cc1)CC2	AC50	> 10 µM
Cc1cc(-c2ccccc2)nnc1NCCN1CCOCC1	AC50	> 10 µM
CCOC(=O)[C@H](CCc1ccccc1)N[C@@H](C)C(=O)N1CCC[C@H]1C(=O)O	AC50	> 10 µM
COc1ccc(C(=O)N2CCN(c3ccc4c(c3)CCC(=O)N4)CC2)cc1OC	AC50	> 30 µM
COC(=O)[C@@H]1CC2=CC(=O)CC[C@]2(C)[C@@]23O[C@@H]2C[C@@]2(C)[C@@H](CC[C@@]24CCC(=O)O4)[C@H]13	AC50	> 30 µM
CN1CCc2cccc3c2[C@H]1Cc1ccc(O)c(O)c1-3	AC50	3.2 µM
C=C1CC[C@@]2(O)[C@H]3Cc4ccc(O)c5c4[C@@]2(CCN3CC2CC2)[C@H]1O5	AC50	> 30 µM
CCCCCOC(=O)Nc1nc(=O)n([C@@H]2O[C@H](C)[C@@H](O)[C@H]2O)cc1F	AC50	> 30 µM
C1=Cc2cccc(OCC3CNCCO3)c2C1 (stereo unspecified)	AC50	> 30 µM
CN1CCC2=C(C1)C(c1ccccc1)c1ccccc12 (stereo unspecified)	AC50	12 µM
O=C1CCC(N2C(=O)c3ccccc3C2=O)C(=O)N1 (stereo unspecified) [THALIDOMIDE]	AC50	> 10 µM
CCCOc1ccc(C(=O)OCCN(CC)CC)cc1N	AC50	> 30 µM
NC(N)=Nc1nc(CSCCC(N)=NS(N)(=O)=O)cs1	AC50	> 10 µM
Cc1cccc(C)c1NC(=O)C1CCCCN1C (stereo unspecified) [MEPIVACAINE]	AC50	> 30 µM
NS(=O)(=O)c1cc(-c2nnn[nH]2)c(NCc2cccs2)cc1Cl [AZOSEMIDE]	AC50	> 30 µM
CN1C(=O)CC(c2ccccc2)C1=O (stereo unspecified) [PHENSUXIMIDE]	AC50	> 10 µM
NC[C@H]1O[C@H](O[C@H]2[C@H](O)[C@@H](O[C@H]3O[C@H](CO)[C@@H](O)[C@H](N)[C@H]3O)[C@H](N)C[C@@H]2N)[C@H](O)[C@@H](O)[C@@H]1O	AC50	> 30 µM
CC(=O)N[C@H]1[C@H]([C@H](O)[C@H](O)CO)OC(C(=O)O)=C[C@@H]1N=C(N)N	AC50	> 30 µM
CN1C(=O)CC(=O)N(c2ccccc2)c2cc(Cl)ccc21	AC50	> 10 µM
CC(C(=O)O)c1ccc(C(=O)c2cccs2)cc1 (stereo unspecified)	AC50	> 10 µM
Nc1nc2ccc(OC(F)(F)F)cc2s1	AC50	> 30 µM
COc1c(C)c2c(c(O)c1C/C=C(\C)CCC(=O)OCCN1CCOCC1)C(=O)OC2 [MYCOPHENOLATE MOFETIL]	AC50	> 30 µM
COC(=O)C1=C(C)NC(C)=C(C(=O)OCC(C)C)C1c1ccccc1[N+](=O)[O-] (stereo unspecified)	AC50	> 10 µM
COC(=O)C1=C(C)NC(C)=C(C(=O)OC(C)C)C1c1cccc2nonc12 (stereo unspecified)	AC50	> 30 µM
OCCN1CCN(CCCN2c3ccccc3C=Cc3ccccc32)CC1	AC50	6.7 µM
CCCCCCC(C)(C)c1cc(O)c2c(c1)OC(C)(C)C1CCC(=O)CC21 (stereo unspecified)	AC50	> 30 µM
C[C@@H]1O[C@@H]1P(=O)(O)O	AC50	> 10 µM
CCN(CC)CCNC(=O)c1cc(Cl)c(N)cc1OC [METOCLOPRAMIDE]	AC50	3 µM
Cc1cccc(C)c1OCC(C)N (stereo unspecified)	AC50	> 30 µM
COc1c(N2CCNC(C)C2)c(F)cc2c(=O)c(C(=O)O)cn(C3CC3)c12 (stereo unspecified)	AC50	> 10 µM
O=C(Cn1ccnc1[N+](=O)[O-])NCc1ccccc1	AC50	> 30 µM
COCC1=C(C(=O)OC(C)OC(=O)OC(C)C)N2C(=O)[C@@H](NC(=O)/C(=N\OC)c3csc(N)n3)[C@H]2SC1 (stereo partly specified)	AC50	> 30 µM
CC[C@H](C)C(=O)O[C@H]1C[C@H](O)C=C2C=C[C@H](C)[C@H](CC[C@@H](O)C[C@@H](O)CC(=O)O)[C@H]21	AC50	> 30 µM
CCC1(C2=CCCCCC2)C(=O)NC(=O)NC1=O	AC50	> 10 µM
NC(=O)c1ncn([C@@H]2O[C@H](CO)[C@@H](O)[C@H]2O)c1O	AC50	> 30 µM
NC(CO)C(=O)NNCc1ccc(O)c(O)c1O (stereo unspecified) [BENSERAZIDE]	AC50	> 10 µM
